The reported measurements were obtained from patent US20120122908A1.

- test summary: Pharmacokinetic studies in mice (plasma levels by HPLC)
- Type: in vivo
- condition info: Balb/c, mouse, plasma, sc; mice, 10 mg/kg s.c., average of two animals; read-out: Cmax
measured attribute: Cmax (µg/mL)

[[record]]
compound = "CC(C=CC1=C(C)C(n2ccnc2)CCC1(C)C)=CC=CC(C)=CC(=O)Nc1ccc(O)cc1 (racemic)"
observed = 16


---

- target or system: RARα (Homo sapiens)
- Construct: Recombinant full-length RAR proteins were expressed as S-Tag fusion proteins in BL21 E. coli cells; S-Tag; made in house; host or cells: E. coli BL21
- Sequence (P10276 1-462): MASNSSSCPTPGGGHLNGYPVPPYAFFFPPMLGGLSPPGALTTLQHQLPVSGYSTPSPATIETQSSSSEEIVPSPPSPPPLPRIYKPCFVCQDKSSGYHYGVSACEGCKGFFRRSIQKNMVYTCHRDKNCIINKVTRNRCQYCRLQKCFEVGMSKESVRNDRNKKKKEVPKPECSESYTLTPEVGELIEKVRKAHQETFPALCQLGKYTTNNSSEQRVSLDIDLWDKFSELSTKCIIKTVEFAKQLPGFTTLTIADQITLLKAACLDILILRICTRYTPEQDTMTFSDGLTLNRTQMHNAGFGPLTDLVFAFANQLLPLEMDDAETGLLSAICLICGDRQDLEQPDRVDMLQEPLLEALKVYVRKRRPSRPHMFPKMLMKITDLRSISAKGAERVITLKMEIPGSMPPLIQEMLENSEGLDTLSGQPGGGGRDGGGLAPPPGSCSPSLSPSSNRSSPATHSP
- test summary: Competitive [3H]ATRA binding to recombinant RARα
- condition info: 1 nM [3H]ATRA, competitor 1 nM to 500 nM
measured attribute: IC50

[[record]]
compound = "CC1=C(/C=C/C(C)=C/C=C/C(C)=C/C(=O)O)C(C)(C)CCC1n1ccnc1 (racemic) [VN/14-1, (±)-4-(1H-imidazole-1-yl)retinoic acid]"
target_or_system = "RARα (Homo sapiens)"
measured_attribute = "IC50"
observed = "~16 nM"


---

- target or system: RARγ (Homo sapiens)
- Construct: Recombinant full-length RAR proteins were expressed as S-Tag fusion proteins in BL21 E. coli cells; S-Tag
- Sequence (P13631 1-454): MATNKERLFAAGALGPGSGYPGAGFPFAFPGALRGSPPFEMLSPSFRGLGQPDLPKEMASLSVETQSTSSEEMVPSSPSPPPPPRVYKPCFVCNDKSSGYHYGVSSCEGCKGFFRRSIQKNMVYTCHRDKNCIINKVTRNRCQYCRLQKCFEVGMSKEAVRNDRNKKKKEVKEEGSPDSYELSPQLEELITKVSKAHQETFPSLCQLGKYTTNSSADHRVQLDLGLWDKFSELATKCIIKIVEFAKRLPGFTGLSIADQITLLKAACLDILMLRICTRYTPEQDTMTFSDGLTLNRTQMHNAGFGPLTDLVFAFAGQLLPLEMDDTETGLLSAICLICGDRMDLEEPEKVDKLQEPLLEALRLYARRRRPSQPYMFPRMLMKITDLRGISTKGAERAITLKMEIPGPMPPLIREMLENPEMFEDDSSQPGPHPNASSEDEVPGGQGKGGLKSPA
- test summary: Competitive [3H]ATRA binding to recombinant RARγ
- condition info: 1 nM [3H]ATRA, competitor 1 nM to 500 nM
- Source text: Because the novel compounds are retinoid-related analogs, they bind to the retinoid receptors in vivo and thus have increased therapeutic potentials. Similar to ATRA, these novel compounds act as a ligand for the retinoic acid receptors (RARs, α, β, and γ) but not the retinoid X receptors (RXRs, α, β, and γ). […]
pIC50: −log10 of the molar value.
measured attribute: pIC50

[[record]]
compound = "CC1=C(/C=C/C(C)=C/C=C/C(C)=C/C(=O)O)C(C)(C)CCC1n1ccnc1 (racemic) [VN/14-1, (±)-4-(1H-imidazole-1-yl)retinoic acid]"
target_or_system = "RARγ (Homo sapiens)"
observed = "~7.80"


---

The molecules listed here are annotated with their IC50.
- target or system: ATRA 4-hydroxylase (Mesocricetus auratus, UniProt A0A1U7QD41)
- Sequence (A0A1U7QD41 entry or part of it): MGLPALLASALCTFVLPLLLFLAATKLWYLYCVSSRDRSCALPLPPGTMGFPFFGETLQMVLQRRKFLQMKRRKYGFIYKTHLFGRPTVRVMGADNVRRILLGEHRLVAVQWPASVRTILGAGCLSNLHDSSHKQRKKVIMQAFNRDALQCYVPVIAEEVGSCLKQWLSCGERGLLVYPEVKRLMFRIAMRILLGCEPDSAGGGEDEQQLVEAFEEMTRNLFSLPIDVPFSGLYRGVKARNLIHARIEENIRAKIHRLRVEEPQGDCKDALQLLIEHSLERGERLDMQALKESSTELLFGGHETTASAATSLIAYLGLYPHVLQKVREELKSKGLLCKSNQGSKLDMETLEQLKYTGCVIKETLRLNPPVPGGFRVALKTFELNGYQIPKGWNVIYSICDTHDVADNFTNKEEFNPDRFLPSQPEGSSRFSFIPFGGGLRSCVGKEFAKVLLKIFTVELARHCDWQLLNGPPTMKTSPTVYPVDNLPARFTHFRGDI
- test summary: Hamster liver microsome assay of ATRA metabolism (ATRA 4-hydroxylase inhibition)
- Assay type: biochemical
- condition info: hamster liver microsomes; Table 2A, initial testing; read-out: IC50 Value
measured attribute: IC50 (nM)

[[record]]
molecule = "COC(=O)C=C(C)C=CC=C(C)C=CC1=C(C)C(n2cncn2)CCC1(C)C (racemic) [VN/13-1]"
measured_attribute = "IC50"
observed = 680

[[record]]
molecule = "CC1=C(/C=C/C(C)=C/C=C/C(C)=C/C(=O)O)C(C)(C)CCC1n1ccnc1 (racemic) [VN/14-1, (±)-4-(1H-imidazole-1-yl)retinoic acid]"
measured_attribute = "IC50"
observed = 100

[[record]]
molecule = "CC1=C(/C=C/C(C)=C/C=C/C(C)=C/C(=O)O)C(C)(C)CCC1n1cnnc1 (racemic) [VN/17-1]"
measured_attribute = "IC50"
observed = 1620

[[record]]
molecule = "CC1=C(/C=C/C(C)=C/C=C/C(C)=C/C(=O)O)C(C)(C)CCC1n1cncn1 (racemic) [VN/16-1]"
measured_attribute = "IC50"
observed = 880


---

- target or system: CYP19 (aromatase) (Homo sapiens, UniProt P11511)
- Sequence (P11511 1-503): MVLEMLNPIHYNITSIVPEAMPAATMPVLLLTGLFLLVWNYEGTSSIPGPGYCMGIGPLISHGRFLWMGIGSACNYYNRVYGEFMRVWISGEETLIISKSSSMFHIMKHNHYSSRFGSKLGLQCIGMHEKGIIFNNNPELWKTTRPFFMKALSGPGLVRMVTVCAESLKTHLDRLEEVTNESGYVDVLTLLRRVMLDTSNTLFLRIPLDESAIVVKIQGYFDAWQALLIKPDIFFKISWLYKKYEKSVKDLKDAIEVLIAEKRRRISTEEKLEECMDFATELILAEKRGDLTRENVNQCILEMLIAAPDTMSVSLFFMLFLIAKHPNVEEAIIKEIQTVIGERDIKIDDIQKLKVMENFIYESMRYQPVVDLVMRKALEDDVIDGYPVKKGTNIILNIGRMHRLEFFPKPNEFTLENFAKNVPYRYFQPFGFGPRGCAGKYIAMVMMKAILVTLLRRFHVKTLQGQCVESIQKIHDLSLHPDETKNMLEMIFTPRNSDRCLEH
- test summary: Selectivity: effect on CYP19 (aromatase)
- Assay type: biochemical
- condition info: concentration as high as 5 μM
measured attribute: inhibition of CYP19 (aromatase)

[[record]]
compound = "CC1=C(/C=C/C(C)=C/C=C/C(C)=C/C(=O)O)C(C)(C)CCC1n1ccnc1 (racemic) [VN/14-1, (±)-4-(1H-imidazole-1-yl)retinoic acid]"
observed = "barely inhibited"

[[record]]
compound = "CC(C=CC1=C(C)C(n2ccnc2)CCC1(C)C)=CC=CC(C)=CC(=O)Nc1ccc(O)cc1 (racemic) [VN/66-1]"
observed = "barely inhibited"

[[record]]
compound = "CC(C=CC1=C(C)C(n2ccnc2)CCC1(C)C)=CC=CC(C)=CC(=O)n1ccnc1 (stereo not shown) [VN/50A-1]"
observed = "barely inhibited"

[[record]]
compound = "COC(=O)C=C(C)C=CC=C(C)C=CC1=C(C)C(n2ccnc2)CCC1(C)C (mixture of isomers) [VN/65-4]"
observed = "barely inhibited"

